Values from patent US5079235A

Tested on: Human cytomegalovirus (HCMV)
Experiment: Human cytomegalovirus (HCMV) plaque reduction assay in MRC5 or Detroit 532 cells
Type: cell-based
Settings: Human betaherpesvirus 5; HCMV, MRC5 or Detroit 532 cells, plaque reduction
readout: IC50 (µM)
Response body: numeric value in µM, unit text excluded.

Request: Fill in the blank: the reported IC50 of CC#Cc1cn([C@H]2C[C@H](O)[C@@H](CO)O2)c(=O)n(C(=O)c2ccccc2)c1=O [Example 4, 3-N-Benzoyl-2'-deoxy-5-propynyluridine] is ____.
Result: 28.5

----------
CC50 at 96 h: recorded values
Assay: Cell toxicity in Vero cell growth inhibition assay (MTT)
Format: cell-based
Settings: monkey; Vero cells, 50% inhibition of cell viability (MTT) at 96 hours; read-out: CCID50 at 96 hr

CC#Cc1cn([C@H]2C[C@H](O)[C@@H](CO)O2)c(=O)n(C(=O)c2ccccc2)c1=O :: > 500 µM

Request: Fill in the blank: the reported CC50 at 96 h of CC#Cc1cn([C@H]2C[C@H](O)[C@@H](CO)O2)c(=O)nc1N is ____.
Result: > 300 µM
